// data source = patent US20240026024A1

Target: T1, human CD73 protein (ACRO Biosystems, Cat No. CD3-H52H7) (human, UniProt P21589 27-547)
T1 sequence: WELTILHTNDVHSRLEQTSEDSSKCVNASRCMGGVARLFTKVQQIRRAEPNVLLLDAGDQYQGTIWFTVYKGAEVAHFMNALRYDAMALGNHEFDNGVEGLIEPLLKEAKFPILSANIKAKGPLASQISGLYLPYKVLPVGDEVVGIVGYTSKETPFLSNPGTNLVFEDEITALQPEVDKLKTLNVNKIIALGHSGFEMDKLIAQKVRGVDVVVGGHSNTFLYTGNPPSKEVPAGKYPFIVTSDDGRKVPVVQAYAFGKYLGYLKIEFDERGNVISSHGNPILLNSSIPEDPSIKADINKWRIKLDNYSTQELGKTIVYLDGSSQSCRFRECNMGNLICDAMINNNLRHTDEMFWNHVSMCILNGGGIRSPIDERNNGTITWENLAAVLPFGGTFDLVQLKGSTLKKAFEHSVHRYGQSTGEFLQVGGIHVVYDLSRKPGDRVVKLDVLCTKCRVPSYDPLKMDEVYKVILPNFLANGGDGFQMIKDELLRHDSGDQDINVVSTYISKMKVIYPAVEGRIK
Experiment: cell-based or functional assay
OBSERVABLE: EC50(µg/mL), inhibition of recombinant CD73 (CellTiter-Glo)
The figure you give is taken to be in µg/mL; do not add the unit.

Query: Endpoint output: EC50(µg/mL), inhibition of recombinant CD73 (CellTiter-Glo) of 900694 (antibody, V domains shown, Constant regions are not restated; it was detected with anti-human Fc and captured on protein A) VH: EVQLVESGGGLVKPGGSLRLSCAASGFTFSKYAMSWVRQAPGKGLEWVAEISSGGGYINYPDTVTGRFTISRDNAKNSLYLQMNSLRAEDTAVYYCARAIYYYGSSYNYYAMDYWGQGTTVTVSS VL: DIQMTQSPSSLSASVGDRVTITCRASQDVGTAEAWYQQKPGKAPKLLIYWASTRHTGVPDRFSGSGSGTDFTLTISSLQPEDFATYYCQQYSSYPLTFGQGTKLEIK . Value?
Response: 0.681

Query: 900581 (antibody, human IgG1, V domains shown) VH: EVQLVESGGGLVKPGGSLKLSCAASGFTFSKYAMSWVRQSPEKRLEWVAEISSGGGYINYPDTVTGRFTISRDNAKNTLYLEMSSLRSGDTAMYYCARAIYYYGSSYNYYAMDYWGQGTSVTVSS VL: DIVMTQSHKFMSTSVGDRVSITCKASQDVGTAEAWYQQKPGQSPKLLIYWASTRHTGVPDRFTGSGSGTDFTLTIGNVQSEDLADYFCQQYSSYPLTFGGGTKLEIK ?
Response: 0.262

Query: 900698 (antibody, V domains shown, Constant regions are not restated) VH: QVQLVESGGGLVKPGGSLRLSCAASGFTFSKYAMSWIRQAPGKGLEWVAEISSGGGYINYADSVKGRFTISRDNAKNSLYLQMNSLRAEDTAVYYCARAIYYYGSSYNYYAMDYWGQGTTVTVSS VL: DIQMTQSPSSLSASVGDRVTITCRASQDVGTAEAWYQQKPGKAPKLLIYWASTRHTGVPSRFSGSGSGTDFTLTISSLQPEDFATYYCQQYSSYPLTFGQGTKLEIK ?
Response: 0.588
